inhibition at 50 µM values for the molecules below.
# Assayed System: human recombinant fXa (Homo sapiens)
# Construct: purchased Chromogenix AB-Instrumentation Laboratories (Milan, Italy)
# Method Description: biochemical
# Condition: at 50 μM; human recombinant fXa; read-out: inhibition percentage ± SEM, fXa
// units = %; emit number, no label

Some molecules with known inhibition at 50 µM results, for comparison:
INSERT INTO measurements (mol, units_of_measure, readout_number) VALUES
  ('O=C(Nc1ccccc1OCc1ccc(F)cc1)C1CCN(C2CCCC2)CC1', '%', 28),
  ('O=C(Nc1ccccc1OCc1cccc(F)c1)C1CCN(c2ccncc2)CC1', '%', 2);

Challenge: Looking for the measured inhibition at 50 µM of "O=C(Nc1cccc(OCc2ccc(F)cc2)c1)C1CCN(C2CCCC2)CC1" , can you help?
Response given: 40

Challenge: Looking for the measured inhibition at 50 µM of "CC(C)N1CCC(C(=O)Nc2cccc(OCc3ccc(F)cc3)c2)CC1" , can you help?
Response given: 28

Challenge: Looking for the measured inhibition at 50 µM of "CC(C)N1CCC(C(=O)Nc2ccc(OCc3ccc(F)cc3)cc2)CC1" , can you help?
Response given: 5

Challenge: Looking for the measured inhibition at 50 µM of "O=C(Nc1ccc(OCc2ccc(F)cc2)cc1)C1CCN(C2CCCC2)CC1" , can you help?
Response given: 28

* * *

# Assayed System: human recombinant fXa (Homo sapiens)
# Construct: purchased Chromogenix AB-Instrumentation Laboratories (Milan, Italy)
# Method Description: biochemical
# Condition: human fXa; read-out: Ki fXa
Measured Parameter: Ki (nM)
// units = nM; emit number, no label

Challenge: Looking for the measured Ki of "N=C(N)N1CCC(C(=O)Nc2cccc(OCc3ccc(-c4ccc(Cl)cc4)cc3)c2)CC1" , can you help?
Response given: 31

* * *

log10 Ki values for the compounds below.
# Assayed System: human recombinant fXa (Homo sapiens, UniProt P00742)
# Construct: purchased Chromogenix AB-Instrumentation Laboratories (Milan, Italy)
# Sequence (P00742 235-488 limits assumed): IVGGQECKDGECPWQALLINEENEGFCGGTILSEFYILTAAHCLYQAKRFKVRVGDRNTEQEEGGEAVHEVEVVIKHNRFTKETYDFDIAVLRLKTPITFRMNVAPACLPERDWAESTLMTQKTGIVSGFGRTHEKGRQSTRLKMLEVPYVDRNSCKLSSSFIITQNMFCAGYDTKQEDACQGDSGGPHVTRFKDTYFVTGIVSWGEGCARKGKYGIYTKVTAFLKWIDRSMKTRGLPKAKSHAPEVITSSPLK
# Sequence (P00742 41-179 partner limits assumed): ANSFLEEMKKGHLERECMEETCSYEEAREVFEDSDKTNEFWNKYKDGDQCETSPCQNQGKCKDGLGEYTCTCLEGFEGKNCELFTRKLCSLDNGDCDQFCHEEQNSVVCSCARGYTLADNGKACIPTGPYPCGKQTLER
# Method Description: biochemical
# Condition: human recombinant fXa; Cheng–Prousoff from IC50; pH 8; read-out: Ki fXa
Response schema: value (number) is log10 of Ki in units of µM.

INSERT INTO measurements (mol, measured_parameter, readout_number) VALUES
  ('O=C(Nc1cccc(OCCc2cccc(F)c2)c1)C1CCN(c2ccncc2)CC1', 'log10 Ki', -0.31),
  ('O=C(Nc1cccc(OCCc2ccc(F)cc2)c1)C1CCN(c2ccncc2)CC1', 'log10 Ki', -0.88),
  ('O=C(Nc1cccc(COc2ccc(F)cc2)c1)C1CCN(c2ccncc2)CC1', 'log10 Ki', -0.11),
  ('CC(C)N1CCC(C(=O)Nc2ccccc2OCc2cc(-c3ccc(Cl)cc3)on2)CC1', 'log10 Ki', -2.15);

Proceed to the following item.
Challenge: Under human recombinant fXa (Homo sapiens, UniProt P00742): log10 Ki value of "N=C(N)N1CCC(C(=O)Nc2cccc(OCc3ccc(F)cc3)c2)CC1" ?
Response given: 1.52

* * *

Ki values for the compounds below.
# Assayed System: horse serum butyrylcholinesterase (eqBChE) (Equus caballus, UniProt P81908)
# Construct: AChE (from electric eel) and BChE (from horse serum); from tissue; host or cells: horse serum
# Sequence (P81908 whole entry): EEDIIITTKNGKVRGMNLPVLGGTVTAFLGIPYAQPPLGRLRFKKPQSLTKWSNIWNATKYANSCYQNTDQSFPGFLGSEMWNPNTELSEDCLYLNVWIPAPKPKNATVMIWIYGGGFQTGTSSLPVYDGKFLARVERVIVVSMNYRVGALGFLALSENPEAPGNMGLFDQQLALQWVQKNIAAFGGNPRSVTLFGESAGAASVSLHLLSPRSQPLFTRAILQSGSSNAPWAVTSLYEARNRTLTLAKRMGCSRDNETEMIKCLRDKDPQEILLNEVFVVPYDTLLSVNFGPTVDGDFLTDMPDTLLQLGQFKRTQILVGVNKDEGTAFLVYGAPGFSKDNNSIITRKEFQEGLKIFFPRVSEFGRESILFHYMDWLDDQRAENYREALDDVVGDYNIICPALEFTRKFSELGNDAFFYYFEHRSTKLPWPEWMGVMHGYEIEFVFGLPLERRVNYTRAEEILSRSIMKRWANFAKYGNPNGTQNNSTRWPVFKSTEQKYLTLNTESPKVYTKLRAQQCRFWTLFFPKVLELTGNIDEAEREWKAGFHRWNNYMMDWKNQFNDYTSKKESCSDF
# Method Description: biochemical
# Condition: horse serum BChE; Cheng–Prousoff from IC50; read-out: Ki BChE
// units = nM; emit number, no label

Challenge: Under horse serum butyrylcholinesterase (eqBChE) (Equus caballus, UniProt P81908): Ki value of "O=C(Nc1cccc(COc2ccc(F)cc2)c1)C1CCN(c2ccncc2)CC1" ?
Response given: 2600

Challenge: Under horse serum butyrylcholinesterase (eqBChE) (Equus caballus, UniProt P81908): Ki value of "O=C(Nc1ccccc1OCc1cccc(F)c1)C1CCN(c2ccncc2)CC1" ?
Response given: 655

Challenge: Under horse serum butyrylcholinesterase (eqBChE) (Equus caballus, UniProt P81908): Ki value of "CC(C)N1CCC(C(=O)Nc2ccc(OCc3ccc(F)cc3)cc2)CC1" ?
Response given: 2360

Challenge: Under horse serum butyrylcholinesterase (eqBChE) (Equus caballus, UniProt P81908): Ki value of "N=C(N)N1CCC(C(=O)Nc2cccc(OCc3cc(-c4cccc(Cl)c4)on3)c2)CC1" ?
Response given: 1120

Challenge: Under horse serum butyrylcholinesterase (eqBChE) (Equus caballus, UniProt P81908): Ki value of "CC(C)N1CCC(C(=O)Nc2ccccc2OCc2ccc(Cl)cc2)CC1" ?
Response given: 105
